# system: Disintegrin and metalloproteinase domain-containing protein 17 (Homo sapiens)
# assay name: inhibition of ADAM17 peptide cleavage – biochemical, QFRET, high throughput, counter-screen for ADAM10 exosite inhibitor project (AID 743214);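 note: 0% = DMSO wells and 100% = marimastat wells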
# particulars: EDANS fluorescence, at 6.95 µM, stronger effect = higher value
Screen size: about 2,100 compounds; about 10 (0.5%) were called active. A selection follows.
The following compounds are shown together with reported inhibition values.

compound	output unit	inhibition
COc1cc(C2CC(=O)N3CN(Cc4ccccc4)CSC3=C2C#N)ccc1OCc1ccccc1 (centres undefined)	%	2.1
O=C1[C@H]2[C@@H](c3ccc(C(F)(F)F)cc3)N[C@]3(CCCN(Cc4ccc(Br)cc4)C3=O)[C@H]2C(=O)N1Cc1ccccc1	%	2.47
Cc1cc(C)cc(NC(=S)NCCc2c[nH]c3ccccc23)c1	%	0.79
O=C(Nc1cccc(S(=O)(=O)Nc2ccc(Cl)cc2)c1)c1ccc2c(c1)OCCO2	%	2.96
Cc1cccc(CCNS(=O)(=O)c2ccc(S(=O)(=O)NC3CCCC3)cc2)c1	%	-0.14
COc1cc(/C=N/O)cc(Br)c1OS(=O)(=O)c1ccc(C)cc1	%	0.97
CC(C)(C)OC(=O)CNC(=O)c1[nH]cnc1C(=O)N[C@@H](Cc1ccccc1)C(=O)OCc1ccccc1	%	2.08
CC(N=Cc1nc(-c2ccccc2)oc1O)c1ccccc1 (centres undefined)	%	1.57
O=C(/C=C/c1ccc(F)cc1)NC(=S)NNC(=O)c1cccnc1	%	0.5

* * *

# system: Disintegrin and metalloproteinase domain-containing protein 17 (Homo sapiens) (UniProt P78536)
# Sequence (P78536 215-824 limits assumed): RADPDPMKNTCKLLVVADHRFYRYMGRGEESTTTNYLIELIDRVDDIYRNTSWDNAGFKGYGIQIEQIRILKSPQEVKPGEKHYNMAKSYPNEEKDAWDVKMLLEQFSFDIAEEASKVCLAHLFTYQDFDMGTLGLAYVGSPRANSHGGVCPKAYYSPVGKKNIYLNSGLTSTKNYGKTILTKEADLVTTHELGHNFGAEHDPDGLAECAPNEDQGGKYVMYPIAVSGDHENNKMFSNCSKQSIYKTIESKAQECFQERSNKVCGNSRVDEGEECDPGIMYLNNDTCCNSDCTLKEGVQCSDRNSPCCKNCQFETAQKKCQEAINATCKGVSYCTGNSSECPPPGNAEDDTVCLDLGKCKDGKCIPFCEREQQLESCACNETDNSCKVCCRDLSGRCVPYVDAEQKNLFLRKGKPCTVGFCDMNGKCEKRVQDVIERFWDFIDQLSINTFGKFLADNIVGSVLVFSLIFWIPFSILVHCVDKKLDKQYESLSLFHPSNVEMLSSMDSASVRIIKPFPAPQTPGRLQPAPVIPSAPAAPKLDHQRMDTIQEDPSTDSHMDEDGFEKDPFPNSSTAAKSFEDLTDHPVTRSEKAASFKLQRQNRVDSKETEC
# assay name: inhibition of ADAM17 peptide cleavage – biochemical, QFRET, high throughput, counter-screen for ADAM10 exosite inhibitor project (AID 743214);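 note: 0% = DMSO wells and 100% = marimastat wells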
# particulars: EDANS fluorescence, at 6.95 µM, stronger effect = higher value
About 10 (0.5%) of roughly 2,100 compounds were called active. These entries were drawn from the full list.
The following compounds are shown together with reported inhibition values.

compound	inhibition / %
CCC(C(=O)OCC(=O)Nc1ccccc1-c1ccccc1)c1ccccc1 (centres undefined)	1.36
COc1cccc(C2CC(c3ccccc3)=NN2S(=O)(=O)c2ccccc2)c1OC (centres undefined)	1.14
O=C(NCc1ccccc1)c1onc(CSc2nc3ccccc3[nH]2)c1C(=O)NCc1ccccc1	1.52
Cc1ccc(/C=N/NC(=O)CSc2nc3ccccc3o2)cc1	0.11
Cn1c(CNc2nc(-c3ccccc3)cs2)nnc1SCC(=O)c1ccccc1	0.06
COc1ccc([C@H]2CC(=O)C=C(c3ccc(OC(F)(F)F)cc3)C2)cc1OC	0.8
O=C1NC(Nc2nc3ccccc3s2)(C(F)(F)F)C(=O)N1C1CCCCC1 (centres undefined)	0.94
COc1cc(/C=N/n2c(C)n[nH]c2=S)ccc1OCc1ccccc1	-0.91
CC1(Cc2cccc(C#N)c2)C(=O)Nc2ccc(-c3cccc(C(F)(F)F)c3)cc21 (centres undefined)	2.64

* * *

The following molecules are shown together with reported inhibition values.
# system: Disintegrin and metalloproteinase domain-containing protein 17 (Homo sapiens)
# assay name: inhibition of ADAM17 peptide cleavage – biochemical, QFRET, high throughput, counter-screen for ADAM10 exosite inhibitor project (AID 743214);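 note: 0% = DMSO wells and 100% = marimastat wells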
# particulars: EDANS fluorescence, at 6.95 µM, stronger effect = higher value
The whole screen tested about 2,100 compounds, of which about 10 (0.5%) were called active. Only a sample is shown.

molecule	inhibition [%]
Cc1ccccc1-n1c(SCC(=O)Nc2cccc3ccccc23)nc(O)cc1=O	0.79
Cc1cc(Nc2ccccc2)n(C(=O)c2ccc(N)cc2)n1	0.56
N#Cc1nc(Cc2cccc3ccccc23)oc1NCc1ccc2c(c1)OCO2	2.25
COC(=O)C1NN=C(C(=O)c2ccc(Br)cc2)C1c1cccc(Br)c1 (centres undefined)	1.16
O=S(=O)(c1ccccc1)N(Cc1cccc(F)c1)c1ccccc1	0.96
CC(C)Oc1cc(F)ccc1-c1cc(C(=O)Nc2cccc(Cl)c2)[nH]n1	2.81
S=c1[nH]cc(-c2ccc(Cl)cc2)n1-c1ccccc1	0.72
COc1cc(Cl)c(S(=O)(=O)N2CCN(Cc3ccc4c(c3)OCO4)CC2)cc1Cl	1.24
Cc1ccc(N(NC(=O)C(C)(C)O)C(=O)c2ccccc2)cc1C	-0.31
Cc1cc(O)ccc1-c1cc(C(=O)NCc2cc(C(F)(F)F)cc(C(F)(F)F)c2)[nH]n1	1.86
CC(C)(C)OC(=O)N1CCC(NC(=O)c2[nH]cnc2C(=O)N[C@@H](Cc2ccccc2)C(=O)OCc2ccccc2)CC1	3.26
Cc1[nH]c2ccccc2c1C(=O)COC(=O)c1c(-c2ccccc2)noc1C	2.46
O=C(NC(Cc1c[nH]c2ccccc12)C(=O)N/N=C/c1ccc(Br)cc1)c1cccs1 (centres undefined)	3.25
O=C(CNC(=O)c1ccc(Cl)cc1Cl)NCC(=O)Nc1ccccc1N1CCOCC1	-0.05
O=C(CC1SC(=Nc2ccccc2)N(Cc2ccccn2)C1=O)Nc1cccc(Cl)c1 (centres undefined)	2.48
O=C(OCc1ccc(-c2ccccc2)cc1)c1cccc(O)c1	4.02
O=C(COC(=O)CCCSc1nc2ccccc2[nH]1)Nc1ccc(Oc2ccccc2)cc1	3.79
Cc1cc(C)cc(NC(=O)CSCc2cnn(-c3ccccc3)c2-n2cccc2)c1	1.7
CC(C)(C)c1ccc(S(=O)(=O)NCC2CCN(C(=O)C(=O)c3cc4ccccc4o3)CC2)cc1	1.76
COc1ccc(NS(=O)(=O)c2ccc(C)c(C(=O)NNC(=O)c3csc(N4CCOCC4)n3)c2)cc1	1.55
O=C1[C@H]2[C@@H](c3ccc(F)cc3)N3C(=O)N(c4ccc(C(F)(F)F)cc4)C(=O)[C@@]3(Cc3ccccc3)[C@H]2C(=O)N1C1CCCCC1	2.35
CN(C)S(=O)(=O)c1cccc(NC(=O)COC(=O)C2(c3ccccc3F)CCCC2)c1	0.96
CCCCCc1c(-c2ccc(OC)c(OC)c2)ncn1CCc1ccccc1OC	1.69
COc1ccc(OCCCn2cccc2/C=C2/C(=N)N3OC(C)=CC3=NC2=O)cc1	0.03
Cc1cccc(C2c3[nH]c4ccccc4c3CCN2C(=O)c2cc(-c3cccn3C)n[nH]2)n1 (centres undefined)	2.55
Cc1ccc(OCc2nnc(SC/C=C/c3ccccc3)n2Cc2ccco2)cc1	2.07
CC(C)C(=O)Nc1cccc(NC(=S)NC(=O)C(c2ccccc2)c2ccccc2)c1	3.08
Cc1cnc(C(=O)OCc2c(C)cc(C(C)(C)C)cc2C)cn1	0.19
Cc1ccc(S(=O)(=O)N2CCN(C(=O)COC(=O)c3c(C)cc(C)cc3C)CC2)c(C)c1	1.25
Cn1nc(C(F)(F)F)c(C(=O)Nc2cccc(C(F)(F)F)c2)c1SCc1ccc(Cl)cc1	2.65
Cc1ccc(S(=O)(=O)N(CC(=O)Nc2cccnc2)c2ccc(Br)cc2)cc1	0.35
CC(C)(C)N1C(=O)[C@H]2[C@@H](c3ccc(Br)cc3)N3C(=O)N(c4cccc(Cl)c4)C(=O)[C@@]3(C)[C@H]2C1=O	0.76
COC(=O)[C@@]12C[C@@H](CC(=O)NCCCCc3ccccc3)C(=O)N(CCc3ccc(OC)c(OC)c3)C1=CCC(C)(C)C2	0.87
COc1ccc(C(=O)NNC(=S)NC(=O)c2ccccc2)cc1	0.42
c1ccc2c(CCN3CCNC[C@H]3Cc3cccc4ccccc34)cccc2c1	2.24
CCOc1ccc(N2C(=O)CC(N(CCc3ccc(OC)c(OC)c3)C(=S)Nc3ccccc3)C2=O)cc1 (centres undefined)	0.25
COc1ccc(C2CC(c3ccccc3)=NN2C(=O)COC(=O)COc2ccccc2)cc1 (centres undefined)	3.56
CCOc1cc(NC(=O)c2ccccc2C(=O)O)c(OCC)cc1NC(=O)c1ccccc1F	2.06
COc1cccc(NC(=O)CN2CCN(c3nc(-c4cccc(OC)c4)cs3)CC2)c1	2.32
